The measured values listed here are drawn from the supplement of paper PMC11061612.

# Test system: SW1710 (Bladder Carcinoma)
# Test Name: Bliss excess, mean over the matrix (fraction); higher = more synergy
Experimental Endpoint: Bliss excess
I'd appreciate a reply containing only the number, no unit.

Use the examples below as a reference point.
Compound | Target Or Test System | Result Value
C[C@@H]1COCCN1c1cc(C2([S@](C)(=N)=O)CC2)nc(-c2ccnc3[nH]ccc23)n1 [AZD6738] + C1CC(C1)(C(=O)[O-])C(=O)[O-].N.N.[Pt+2] [Carboplatin] (first compound max 10 µM, 7x7, partner max 10 µM) | SW1710 (Bladder Carcinoma) | -0.0642
Cc1c2c(nn1C)CSCc1cc(n(C)n1)CSc1cc(c3ccccc3c1)OCCCc1c(C(=O)O)n(C)c3c-2c(Cl)ccc13 [AZD5991] + C[C@@H](Nc1cc(F)cc(F)c1)c1cc(C(=O)N(C)C)cc2c(=O)cc(N3CCOCC3)oc12 [AZD8186] (first compound max 1 µM, 7x7, partner max 3 µM) | SW1710 (Bladder Carcinoma) | -0.0083
CCN(CCO)CCCOc1ccc2c(Nc3cc(CC(=O)Nc4cccc(F)c4)[nH]n3)ncnc2c1 [AZD2811] + C=CCn1c(=O)c2cnc(Nc3ccc(N4CCN(C)CC4)cc3)nc2n1-c1cccc(C(C)(C)O)n1 [AZD1775] (first compound max 1 µM, partner max 1 µM) | SW1710 (Bladder Carcinoma) | 0.0084

Next compound, Bliss excess to be filled in.
Problem: Please report the measured Bliss excess for C[C@@H](Nc1cc(F)cc(F)c1)c1cc(C(=O)N(C)C)cc2c(=O)cc(N3CCOCC3)oc12 [AZD8186] + CC(=O)c1c(C)c2cnc(Nc3ccc(N4CCNCC4)cn3)nc2n(C2CCCC2)c1=O [Palbociclib] (first compound max 10 µM, 7x7, partner max 10 µM)
Result: 0.0531

====

# Tested on: ALL-PO (B-Lymphoblastic Leukemia)
# Test Name: combination Emax (second highest fraction inhibited in the dose matrix, 72 h); higher = more inhibition; extreme values may be limits of the assay
Experimental Endpoint: combination Emax
I'd appreciate a reply containing only the number, no unit.

Use the examples below as a reference point.
Compound | Target Or Test System | Result Value
CC1(C)CCC(CN2CCN(c3ccc(C(=O)NS(=O)(=O)c4ccc(NCC5CCOCC5)c([N+](=O)[O-])c4)c(Oc4cnc5[nH]ccc5c4)c3)CC2)=C(c2ccc(Cl)cc2)C1 [Venetoclax] + CN(C)CCCOc1ccc(-c2ccc3ncc4c(c3c2)n(C2CCOCC2)c(=O)n4C)cn1 [AZD0156] (first compound max 1 µM, 7x7, partner max 1 µM) | ALL-PO (B-Lymphoblastic Leukemia) | 0.516
Cc1c2c(nn1C)CSCc1cc(n(C)n1)CSc1cc(c3ccccc3c1)OCCCc1c(C(=O)O)n(C)c3c-2c(Cl)ccc13 [AZD5991] + CC1(C)CCC(CN2CCN(c3ccc(C(=O)NS(=O)(=O)c4ccc(NCC5CCOCC5)c([N+](=O)[O-])c4)c(Oc4cnc5[nH]ccc5c4)c3)CC2)=C(c2ccc(Cl)cc2)C1 [Venetoclax] (first compound max 1 µM, 7x7, partner max 1 µM) | ALL-PO (B-Lymphoblastic Leukemia) | 1
Cc1cc2ncnn2cc1Nc1ncc2c(n1)n(C1CCOCC1)c(=O)n2C [AZD7648] + O=C(c1cc(Cc2n[nH]c(=O)c3ccccc23)ccc1F)N1CCN(C(=O)C2CC2)CC1 [Olaparib] (first compound max 10 µM, 7x7, partner max 10 µM) | ALL-PO (B-Lymphoblastic Leukemia) | 0.608
CN(CCO)CC[C@H](CSc1ccccc1)Nc1ccc(S(=O)(=O)NC(=O)c2ccc(N3CCC([C@@H](O)c4ccccc4-c4ccc(Cl)cc4)CC3)cc2)cc1S(=O)(=O)C(F)(F)F [AZD4320] + CN(C)CCCOc1ccc(-c2ccc3ncc4c(c3c2)n(C2CCOCC2)c(=O)n4C)cn1 [AZD0156] (first compound max 1 µM, 7x7, partner max 1 µM) | ALL-PO (B-Lymphoblastic Leukemia) | 0.97
COc1nnc2ccc(N3CCC(c4ccc(OCCN5CCN(C)C(=O)[C@H]5C)cc4)CC3)nn12 [AZD5153] + CC1(C)CCC(CN2CCN(c3ccc(C(=O)NS(=O)(=O)c4ccc(NCC5CCOCC5)c([N+](=O)[O-])c4)c(Oc4cnc5[nH]ccc5c4)c3)CC2)=C(c2ccc(Cl)cc2)C1 [Venetoclax] (first compound max 1 µM, 7x7, partner max 1 µM) | ALL-PO (B-Lymphoblastic Leukemia) | 0.889

Next compound, combination Emax to be filled in.
Problem: Please report the measured combination Emax for COc1cccc(OCCCN)c1-c1cc(Nc2cnc(C#N)cn2)n[nH]1 [Prexasertib] + CCc1c2c(nc3ccc(O)cc13)-c1cc3c(c(=O)n1C2)COC(=O)[C@]3(O)CC [SN-38] (first compound max 1 µM, 7x7, partner max 0.3 µM)
Result: 0.993

====

# Test system: NCI-H1568 (Lung Adenocarcinoma)
# Test Name: combination Emax (second highest fraction inhibited in the dose matrix, 72 h); higher = more inhibition; extreme values may be limits of the assay
Experimental Endpoint: combination Emax
I'd appreciate a reply containing only the number, no unit.

Use the examples below as a reference point.
Molecule | Target Or Test System | combination Emax
COc1cccc(OCCCN)c1-c1cc(Nc2cnc(C#N)cn2)n[nH]1 [Prexasertib] + O=C(c1cc(Cc2n[nH]c(=O)c3ccccc23)ccc1F)N1CCN(C(=O)C2CC2)CC1 [Olaparib] (first compound max 1 µM, 7x7, partner max 10 µM) | NCI-H1568 (Lung Adenocarcinoma) | 0.481
COc1nnc2ccc(N3CCC(c4ccc(OCCN5CCN(C)C(=O)[C@H]5C)cc4)CC3)nn12 [AZD5153] + Cn1cnc2c(F)c(Nc3ccc(Br)cc3Cl)c(C(=O)NOCCO)cc21 [Selumetinib] (first compound max 1 µM, 7x7, partner max 10 µM) | NCI-H1568 (Lung Adenocarcinoma) | 0.413
COc1nnc2ccc(N3CCC(c4ccc(OCCN5CCN(C)C(=O)[C@H]5C)cc4)CC3)nn12 [AZD5153] + CN(CC[C@H](CSC1=CC=CC=C1)NC2=C(C=C(C=C2)S(=O)(=O)NC(=O)C3=CC=C(C=C3)N4CCC(CC4)[C@H](C5=CC=CC=C5C6=CC=C(C=C6)Cl)O)S(=O)(=O)C(F)(F)F)CCO [AZD4320] (first compound max 1 µM, 7x7, partner max 1 µM) | NCI-H1568 (Lung Adenocarcinoma) | 0.266

Next molecule, combination Emax to be filled in.
Problem: Please report the measured combination Emax for COc1cccc(OCCCN)c1-c1cc(Nc2cnc(C#N)cn2)n[nH]1 [Prexasertib] + Cc1cc2ncnn2cc1Nc1ncc2c(n1)n(C1CCOCC1)c(=O)n2C [AZD7648] (first compound max 1 µM, 7x7, partner max 10 µM)
Result: 0.54

====

Entries and their measured Bliss excess follow.
# System: KYAE-1 (Esophageal Adenocarcinoma)
# Test Name: Bliss excess, mean over the matrix (fraction); higher = more synergy
I'd appreciate a reply containing only the number, no unit.

Compound | Bliss excess
Cc1cc2ncnn2cc1Nc1ncc2c(n1)n(C1CCOCC1)c(=O)n2C [AZD7648] + CN(C)CCCOc1ccc(-c2ccc3ncc4c(c3c2)n(C2CCOCC2)c(=O)n4C)cn1 [AZD0156] (first compound max 10 µM, 7x7, partner max 1 µM) | 0.0007
N#Cc1cnc(Nc2cc(NC[C@H]3CNCCO3)c(C(F)(F)F)cn2)cn1 [SRA737] + Nc1ccn([C@@H]2O[C@H](CO)[C@@H](O)C2(F)F)c(=O)n1 [Gemcitabine] (first compound max 10 µM, 7x7, partner max 0.3 µM) | 0.0075
C=CCn1c(=O)c2cnc(Nc3ccc(N4CCN(C)CC4)cc3)nc2n1-c1cccc(C(C)(C)O)n1 [AZD1775] + O=C(c1cc(Cc2n[nH]c(=O)c3ccccc23)ccc1F)N1CCN(C(=O)C2CC2)CC1 [Olaparib] (first compound max 1 µM, partner max 10 µM) | -0.0006

Next compound, Bliss excess to be filled in.
Problem: # return Bliss excess of CC(=O)c1c(C)c2cnc(Nc3ccc(N4CCNCC4)cn3)nc2n(C2CCCC2)c1=O [Palbociclib] + Cn1cnc2c(F)c(Nc3ccc(Br)cc3Cl)c(C(=O)NOCCO)cc21 [Selumetinib] (first compound max 10 µM, 7x7, partner max 10 µM) (system: KYAE-1 (Esophageal Adenocarcinoma))
Result: -0.0125

====

Entries and their measured Bliss excess follow.
# System: LOXIMVI (Melanoma)
# Test Name: Bliss excess, mean over the matrix (fraction); higher = more synergy
I'd appreciate a reply containing only the number, no unit.

Use the examples below as a reference point.
Molecule | Target Or Test System | Result Value
C=CCn1c(=O)c2cnc(Nc3ccc(N4CCN(C)CC4)cc3)nc2n1-c1cccc(C(C)(C)O)n1 [AZD1775] + CCc1c2c(nc3ccc(O)cc13)-c1cc3c(c(=O)n1C2)COC(=O)[C@]3(O)CC [SN-38] (first compound max 1 µM, partner max 0.3 µM) | LOXIMVI (Melanoma) | -0.0862
Cc1c2c(nn1C)CSCc1cc(n(C)n1)CSc1cc(c3ccccc3c1)OCCCc1c(C(=O)O)n(C)c3c-2c(Cl)ccc13 [AZD5991] + C[C@@H](Nc1cc(F)cc(F)c1)c1cc(C(=O)N(C)C)cc2c(=O)cc(N3CCOCC3)oc12 [AZD8186] (first compound max 1 µM, 7x7, partner max 3 µM) | LOXIMVI (Melanoma) | -0.0227

Next molecule, Bliss excess to be filled in.
Problem: Please report the measured Bliss excess for CC(=O)c1c(C)c2cnc(Nc3ccc(N4CCNCC4)cn3)nc2n(C2CCCC2)c1=O [Palbociclib] + CC1(C)CCC(CN2CCN(c3ccc(C(=O)NS(=O)(=O)c4ccc(NCC5CCOCC5)c([N+](=O)[O-])c4)c(Oc4cnc5[nH]ccc5c4)c3)CC2)=C(c2ccc(Cl)cc2)C1 [Venetoclax] (first compound max 10 µM, 7x7, partner max 1 µM)
Result: -0.0045
